// provenance: patent US20250304576A1

Target: IKBKB (IKKβ) (Homo sapiens, UniProt O14920)
Construct: purchased Life Technologies (assay performed by the vendor)
Sequence (O14920 1-756): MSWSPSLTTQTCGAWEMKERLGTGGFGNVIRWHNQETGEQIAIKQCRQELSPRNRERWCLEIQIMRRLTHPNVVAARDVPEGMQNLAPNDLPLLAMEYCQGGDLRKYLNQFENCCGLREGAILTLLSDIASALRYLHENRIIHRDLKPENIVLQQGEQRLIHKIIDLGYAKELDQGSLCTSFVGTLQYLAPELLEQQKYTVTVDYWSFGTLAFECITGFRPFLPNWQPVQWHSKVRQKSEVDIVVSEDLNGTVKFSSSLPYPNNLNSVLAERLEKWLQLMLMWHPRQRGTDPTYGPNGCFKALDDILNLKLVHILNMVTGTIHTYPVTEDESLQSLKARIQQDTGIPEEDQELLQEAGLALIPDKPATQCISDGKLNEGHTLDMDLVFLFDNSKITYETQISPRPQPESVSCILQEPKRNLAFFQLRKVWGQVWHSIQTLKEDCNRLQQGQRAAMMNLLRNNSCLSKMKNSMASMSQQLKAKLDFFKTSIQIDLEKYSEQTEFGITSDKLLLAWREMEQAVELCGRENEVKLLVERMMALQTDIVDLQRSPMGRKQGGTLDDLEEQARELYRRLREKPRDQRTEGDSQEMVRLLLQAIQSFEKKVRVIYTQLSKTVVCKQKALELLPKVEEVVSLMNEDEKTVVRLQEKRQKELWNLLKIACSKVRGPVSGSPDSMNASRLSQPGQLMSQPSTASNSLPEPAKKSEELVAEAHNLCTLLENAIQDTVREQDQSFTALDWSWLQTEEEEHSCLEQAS
Assay: Z'-LYTE IKKβ assay (Life Technologies)
Assay type: biochemical
parameter: log10(IC50) (log10 of the value in nM)
Answers are given as log10 of IC50 in nM.

See these solved cases before continuing.
{"compound": "CC(C)(C)C#Cc1cc(-c2ccnc3[nH]ccc23)cc2c(N)n[nH]c12", "quantitative_result": 3.08}
{"compound": "CN1CCCN(Cc2cc3c(-c4ccc5[nH]nc(N)c5c4)ccnc3[nH]2)CC1", "quantitative_result": 2.58}
{"compound": "Nc1n[nH]c2c(C#CC3CCCC3)cc(-c3ccnc4[nH]ccc34)cc12", "quantitative_result": 3.18}
{"compound": "CN(C)CCCNCc1cc2c(-c3ccc4[nH]nc(N)c4c3)ccnc2[nH]1", "quantitative_result": 2.39}
{"compound": "C#Cc1cc(-c2ccnc3[nH]ccc23)cc2c(N)n[nH]c12", "quantitative_result": 2.20}

Exercise: For the compound shown here, Nc1n[nH]c2ccc(-c3ccnc4[nH]c(CC5CCNCC5)cc34)cc12 , give the reported log10(IC50).
Solution: 1.72

Exercise: For the compound shown here, Nc1n[nH]c2ccc(-c3ccnc4[nH]c(CN5CCCCC5)cc34)cc12 , give the reported log10(IC50).
Solution: 2.66

Exercise: For the compound shown here, Nc1n[nH]c2ccc(-c3ccnc4[nH]c(CCCN5CCCCC5)cc34)cc12 , give the reported log10(IC50).
Solution: 1.66

Exercise: For the compound shown here, Nc1n[nH]c2ccc(-c3ccnc4[nH]c(C5CC5)cc34)cc12 , give the reported log10(IC50).
Solution: 1.23

Exercise: For the compound shown here, CC(C)N(C)Cc1cc2c(-c3ccc4[nH]nc(N)c4c3)ccnc2[nH]1 , give the reported log10(IC50).
Solution: 2.90

----------
Target: CHUK (IKK alpha) (Homo sapiens)
Construct: purchased Life Technologies (assay performed by the vendor)
Sequence (O15111 whole entry): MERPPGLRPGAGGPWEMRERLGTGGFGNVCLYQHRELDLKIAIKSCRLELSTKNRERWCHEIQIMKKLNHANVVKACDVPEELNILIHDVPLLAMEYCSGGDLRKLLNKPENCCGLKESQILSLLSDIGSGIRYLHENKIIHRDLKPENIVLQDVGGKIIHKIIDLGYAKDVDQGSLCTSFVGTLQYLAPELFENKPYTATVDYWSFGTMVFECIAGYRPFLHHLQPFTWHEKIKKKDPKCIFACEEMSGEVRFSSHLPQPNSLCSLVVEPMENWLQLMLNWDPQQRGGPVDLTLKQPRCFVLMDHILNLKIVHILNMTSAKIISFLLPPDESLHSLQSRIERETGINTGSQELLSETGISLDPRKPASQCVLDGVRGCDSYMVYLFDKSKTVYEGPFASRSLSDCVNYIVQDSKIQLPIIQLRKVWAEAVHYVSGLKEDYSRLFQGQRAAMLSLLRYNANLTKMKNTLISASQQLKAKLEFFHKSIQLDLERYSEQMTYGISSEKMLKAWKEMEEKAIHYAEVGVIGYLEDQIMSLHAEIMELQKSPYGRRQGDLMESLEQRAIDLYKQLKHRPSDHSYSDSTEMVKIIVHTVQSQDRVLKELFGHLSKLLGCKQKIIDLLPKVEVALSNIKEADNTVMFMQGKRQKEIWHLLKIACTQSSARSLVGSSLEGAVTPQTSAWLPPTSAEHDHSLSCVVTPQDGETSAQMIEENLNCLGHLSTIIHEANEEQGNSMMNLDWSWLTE
Test: Adapta IKKα assay (TR-FRET ADP formation, Life Technologies)
Type: biochemical
Conditions: Adapta assay (second line of an example)
pIC50 reference
Kindly note that pIC50 refers to -log10 of the concentration in mol/L and answer with the value alone.

See these solved cases before continuing.
{"molecule": "Nc1n[nH]c2ccc(-c3ccnc4[nH]c(CCCN5CCCCC5)cc34)cc12", "parameter": "pIC50", "quantitative_result": 8.40}
{"molecule": "CC(C)N(C)Cc1cc2c(-c3ccc4[nH]nc(N)c4c3)ccnc2[nH]1", "parameter": "pIC50", "quantitative_result": 7.49}
{"molecule": "Nc1n[nH]c2ccc(-c3ccnc4[nH]c(CN5CCC(F)(F)CC5)cc34)cc12", "parameter": "pIC50", "quantitative_result": 7.96}
{"molecule": "CN(C)CCCNCc1cc2c(-c3ccc4[nH]nc(N)c4c3)ccnc2[nH]1", "parameter": "pIC50", "quantitative_result": 8.00}
{"molecule": "C#Cc1cc(-c2ccnc3[nH]ccc23)cc2c(N)n[nH]c12", "parameter": "pIC50", "quantitative_result": 8.48}
{"molecule": "CC(C)(C)C#Cc1cc(-c2ccnc3[nH]ccc23)cc2c(N)n[nH]c12", "parameter": "pIC50", "quantitative_result": 7.96}

Exercise: For the molecule shown here, Nc1n[nH]c2c(C#CCCCN3CCOCC3)cc(-c3ccnc4[nH]ccc34)cc12 , give the reported pIC50.
Solution: 7.57

Exercise: For the molecule shown here, CC(C)(C)OCc1cc2c(-c3ccc4[nH]nc(N)c4c3)ccnc2[nH]1 , give the reported pIC50.
Solution: 8.70

Exercise: For the molecule shown here, Nc1n[nH]c2c(C#CC3CCCCC3)cc(-c3ccnc4[nH]ccc34)cc12 , give the reported pIC50.
Solution: 6.70

Exercise: For the molecule shown here, Nc1n[nH]c2ccc(-c3ccnc4[nH]c(CCC5CCCCC5)cc34)cc12 , give the reported pIC50.
Solution: 7.59

Exercise: For the molecule shown here, CN1CCN(Cc2cc3c(-c4ccc5[nH]nc(N)c5c4)ccnc3[nH]2)CC1 , give the reported pIC50.
Solution: 7.85

Exercise: For the molecule shown here, CC(C)(C)NCc1cc2c(-c3ccc4[nH]nc(N)c4c3)ccnc2[nH]1 , give the reported pIC50.
Solution: 7.47

Exercise: For the molecule shown here, Nc1n[nH]c2ccc(-c3ccnc4[nH]c(CC5CCOCC5)cc34)cc12 , give the reported pIC50.
Solution: 9.00

----------
Target: Recombinant IKKβ (Homo sapiens, UniProt O14920)
Construct: purchased Millipore, Dundee, UK
Experiment: DELFIA IKKβ kinase assay (apparent Ki, Cheng-Prusoff)
Format: biochemical
Conditions: non-italicised figure: DELFIA assay
Protocol: IKKα and IKKβ inhibitory activity was determined using three different assays: a dissociation enhanced ligand fluorescent immunoassay (DELFIA) based on the protocol of HTScan™ IKKβ Kinase Assay (Cell Signaling Technology, USA); an Adapta IKKα assay (performed by Life Technologies); a Z′-LYTE™ IKKβ assay (performed by Life Technologies). […]
pKi reference
Kindly note that pKi refers to -log10 of the concentration in mol/L and answer with the value alone.

{"smiles_string": "COCCNC(=O)Nc1cc(-c2ccc3[nH]nc(N)c3c2)ccn1", "pKi": 5.80}
{"smiles_string": "Nc1n[nH]c2ccc(-c3ccnc(NCCCO)c3)cc12", "pKi": 6.10}
{"smiles_string": "Cc1cc2c(-c3ccc4[nH]nc(N)c4c3)ccnc2[nH]1", "pKi": 7.48}

Exercise: For the molecule shown here, CCNC(=O)Nc1cc(-c2ccc3[nH]nc(N)c3c2)ccn1 , give the reported pKi.
Solution: 6.08

Exercise: For the molecule shown here, Nc1cc(-c2cc(-c3cccc(C=O)c3)c3[nH]nc(N)c3c2)ccn1 , give the reported pKi.
Solution: 7.00

Exercise: For the molecule shown here, COC(=O)Nc1cc(-c2cc(C#CC(C)(C)O)c3[nH]nc(N)c3c2)ccn1 , give the reported pKi.
Solution: 6.08

----------
Molecular target: Recombinant IKKα (Homo sapiens, UniProt O15111)
Construct: purchased Millipore, Dundee, UK
Assay: DELFIA IKKα kinase assay (apparent Ki, Cheng-Prusoff)
Format: biochemical
Details: non-italicised figure: DELFIA assay
Decide using Ki alone. Strictly below 40 nM: criterion met. Equal to or above 40 nM: criterion not met.

As a guide, the following entries are already answered.
{"molecule": "NC(=O)c1ccc(-c2cc(-c3ccnc(N)c3)cc3c(N)n[nH]c23)cc1 [Example 120]", "answer_label": "criterion not met"}
{"molecule": "Nc1cc(-c2cc(-c3cncs3)c3[nH]nc(N)c3c2)ccn1 [Example 132]", "answer_label": "criterion met"}
{"molecule": "Nc1cc(-c2cc(-c3ccsc3)c3[nH]nc(N)c3c2)ccn1 [Example 130]", "answer_label": "criterion not met"}
{"molecule": "CCOC(=O)c1cccc(-c2cc(-c3ccnc(N)c3)cc3c(N)n[nH]c23)c1 [Example 112]", "answer_label": "criterion not met"}
{"molecule": "Nc1nccc(-c2ccc3[nH]nc(N)c3c2)c1CCCCCO [Example 103]", "answer_label": "criterion not met"}

// next entry
Exercise: Is Ki of CNC(=O)C#Cc1c(-c2ccc3[nH]nc(N)c3c2)ccnc1N [Example 98] strictly below 40 nM?
Solution: criterion not met
